# Test system: Zea mays (ZEAMX)
# Test summary: Post-emergence crop plant compatibility, greenhouse pot test
# Assay type: in vivo
# Condition: 1.25 g/ha, vs untreated controls
Post-emergence action against ZEAMX (crop plant compatibility) for assorted compounds
Report the value in % with no unit label.

Solved entries (count: 4):
Cn1c(C(F)(F)F)cc(=O)n(-c2cc(Oc3ccccc3OCC(=O)OCCC#N)c(Cl)cc2F)c1=O [I.7-179]; 0
Cn1c(C(F)(F)F)cc(=O)n(-c2cc(Oc3ccccc3OCC(=O)OCc3ccccn3)c(C#N)cc2F)c1=O [I.9-276]; 0
COCCOCCOC(=O)COc1ccc(F)cc1Oc1cc(-n2c(=O)cc(C(F)(F)F)n(C)c2=O)c(F)cc1Cl [I.23-23]; 20
COCCOC(=O)COc1ccccc1Oc1cc(-n2c(=O)cc(C(F)(F)F)n(C)c2=O)c(F)cc1Br [I.8-1]; 20

Here is the next item to consider.
Incoming: Note down Post-emergence action against ZEAMX (crop plant compatibility) recorded for COCCOCCOC(=O)COc1ccccc1Oc1cc(-n2c(=O)cc(C(F)(F)F)n(C)c2=O)c(F)cc1[N+](=O)[O-] [I.6-23]
Outgoing: 10

---

pest or weed control at 1.25 g/ha for assorted compounds
# System: Veronica persica (VERPE)
# Test summary: Post-emergence herbicidal action, greenhouse pot test
# Format: in vivo
# Condition: Veronica persica, 504 h, 1.25 g/ha, read-out: Post-emergence action against VERPE
Remember to put the unit after the number in your answer.

Solved entries (count: 2):
COCCOC(=O)COc1ccccc1Oc1cc(-n2c(=O)cc(C(F)(F)F)n(C)c2=O)c(F)cc1Cl [I.7-1]; 100%
COCCOC(=O)C(C)Oc1ccccc1Sc1cc(-n2c(=O)cc(C(F)(F)F)n(C)c2=O)c(F)cc1Cl (racemic) [I.2-1]; 90%

Incoming: Note down pest or weed control at 1.25 g/ha recorded for CC(C#N)OC(=O)COc1ccccc1Oc1cc(-n2c(=O)cc(C(F)(F)F)n(C)c2=O)c(F)cc1Cl (stereo not drawn) [I.7-177]
Outgoing: 90%

Incoming: Note down pest or weed control at 1.25 g/ha recorded for Cn1c(C(F)(F)F)cc(=O)n(-c2cc(Oc3ccccc3OCC(=O)OCC#N)c(Br)cc2F)c1=O [I.8-176]
Outgoing: 100%

Incoming: Note down pest or weed control at 1.25 g/ha recorded for Cn1c(C(F)(F)F)cc(=O)n(-c2cc(Oc3ccccc3OCC(=O)OCC3CCCO3)c(Cl)cc2F)c1=O (stereo not drawn) [I.7-71]
Outgoing: 100%

---

# Test system: Triticum aestivum (TRZAS)
# Test summary: Post-emergence crop plant compatibility, greenhouse pot test
# Assay type: in vivo
# Condition: 1.25 g/ha, vs untreated controls
Post-emergence action against TRZAS (crop plant compatibility) for assorted compounds
Report the value in % with no unit label.

Solved entries (count: 6):
Cn1c(C(F)(F)F)cc(=O)n(-c2cc(Oc3ccccc3OCC(=O)OCc3cccnn3)c(Cl)cc2F)c1=O; 0
COCCOCCOC(=O)C(C)Oc1ccccc1Sc1cc(-n2c(=O)cc(C(F)(F)F)n(C)c2=O)c(F)cc1Cl (racemic); 20
Cn1c(C(F)(F)F)cc(=O)n(-c2cc(Oc3cc(F)ccc3OCC(=O)OCc3ccccn3)c(Cl)cc2F)c1=O; 20
COCCOC(=O)COc1ccccc1Oc1cc(-n2c(=O)cc(C(F)(F)F)n(C)c2=O)c(F)cc1[N+](=O)[O-]; 10
Cn1c(C(F)(F)F)cc(=O)n(-c2cc(Oc3ccccc3OCC(=O)OCC3CCOC3)c(Cl)cc2F)c1=O (stereo not shown); 10
Cn1c(C(F)(F)F)cc(=O)n(-c2cc(Oc3ccccc3OCC(=O)OCCC#N)c(Cl)cc2F)c1=O; 0

Here is the next item to consider.
Incoming: Note down Post-emergence action against TRZAS (crop plant compatibility) recorded for CC(C#N)OC(=O)COc1ccccc1Oc1cc(-n2c(=O)cc(C(F)(F)F)n(C)c2=O)c(F)cc1Cl (stereo not shown)
Outgoing: 0

---

# Test system: Polygonum convolvulus (POLCO)
# Test summary: Post-emergence herbicidal action, greenhouse pot test
# Type: in vivo
# Condition: Fallopia convolvulus, 504 h, dosage 5 g/ha, read-out: Post-emergence action against POLCO in %
Measure: pest or weed control at 5 g/ha
Remember to put the unit after the number in your answer.

Solved entries (count: 3):
COCCOC(=O)COc1ccccc1Oc1cc(-n2c(=O)cc(C(F)(F)F)n(C)c2=O)c(F)cc1[N+](=O)[O-]; 100%
CC(C#N)OC(=O)COc1ccccc1Oc1cc(-n2c(=O)cc(C(F)(F)F)n(C)c2=O)c(F)cc1Cl (stereo not shown); 80%
COCCOC(=O)C(C)Oc1ccccc1Sc1cc(-n2c(=O)cc(C(F)(F)F)n(C)c2=O)c(F)cc1Cl (racemic); 80%

Incoming: Note down pest or weed control at 5 g/ha recorded for "Cn1c(C(F)(F)F)cc(=O)n(-c2cc(Oc3ccccc3OCC(=O)OCC#N)c(Br)cc2F)c1=O"
Outgoing: 80%

Incoming: Note down pest or weed control at 5 g/ha recorded for "Cn1c(C(F)(F)F)cc(=O)n(-c2cc(Oc3ccccc3OCC(=O)OCC#N)c(Cl)cc2F)c1=O"
Outgoing: 100%

Incoming: Note down pest or weed control at 5 g/ha recorded for Cn1c(C(F)(F)F)cc(=O)n(-c2cc(Oc3ccccc3OCC(=O)OCC3CCCO3)c(Cl)cc2F)c1=O (stereo not shown)
Outgoing: 100%

Incoming: Note down pest or weed control at 5 g/ha recorded for "COCCOC(=O)COc1ccccc1Oc1cc(-n2c(=O)cc(C(F)(F)F)n(C)c2=O)c(F)cc1Cl"
Outgoing: 80%

---

# Tested on: Oryza sativa (ORYSA)
# Test summary: Post-emergence crop plant compatibility, greenhouse pot test (also comparative test C)
# Format: in vivo
# Condition: 5 g/ha, vs untreated controls
Measure: Post-emergence action against ORYSA (crop plant compatibility) (%)
Report the value in % with no unit label.

Solved entries (count: 5):
Cn1c(C(F)(F)F)cc(=O)n(-c2cc(Oc3ccccc3OCC(=O)OCCOC(F)(F)F)c(C#N)cc2F)c1=O; 0
Cn1c(C(F)(F)F)cc(=O)n(-c2cc(Oc3cc(F)ccc3OCC(=O)OCc3ccccn3)c(Cl)cc2F)c1=O; 10
Cn1c(C(F)(F)F)cc(=O)n(-c2cc(Oc3c(F)cccc3OCC(=O)OCc3ccccn3)c(Cl)cc2F)c1=O; 0
COCCOC(=O)C(C)Oc1ccccc1Sc1cc(-n2c(=O)cc(C(F)(F)F)n(C)c2=O)c(F)cc1Cl (racemic); 10
Cn1c(C(F)(F)F)cc(=O)n(-c2cc(Oc3ccccc3OCC(=O)OCc3cccnc3)c(Cl)cc2F)c1=O; 0

Incoming: Note down Post-emergence action against ORYSA (crop plant compatibility) recorded for "COCCOCCOC(=O)COc1ccccc1Oc1cc(-n2c(=O)cc(C(F)(F)F)n(C)c2=O)c(F)cc1[N+](=O)[O-]"
Outgoing: 10

Incoming: Note down Post-emergence action against ORYSA (crop plant compatibility) recorded for CC(Oc1ccccc1Sc1cc(-n2c(=O)cc(C(F)(F)F)n(C)c2=O)c(F)cc1Cl)C(=O)OCC1CCOC1 (mixture of isomers)
Outgoing: 20

---

# System: Polygonum convolvulus (POLCO)
# Test summary: Post-emergence herbicidal action, greenhouse pot test
# Format: in vivo
# Condition: Fallopia convolvulus, 504 h, dosage 20 g/ha, read-out: Post-emergence action against POLCO in %
# Description: Seeds of monocotyledonous and dicotyledonous weeds and crop plants were placed in sandy loam in plastic or wood-fiber pots, covered with soil and cultivated in a greenhouse under controlled growth conditions. 2 to 3 weeks after sowing, the test plants were treated at the one-leaf stage. […]
Measure: pest or weed control at 20 g/ha

Solved entries (count: 3):
COCCOC(=O)C(C)Oc1ccccc1Sc1cc(-n2c(=O)cc(C(F)(F)F)n(C)c2=O)c(F)cc1Cl (racemic); 100%
Cn1c(C(F)(F)F)cc(=O)n(-c2cc(Oc3ccccc3OCC(=O)OCC#N)c([N+](=O)[O-])cc2F)c1=O; 100%
CC(C#N)OC(=O)COc1ccccc1Oc1cc(-n2c(=O)cc(C(F)(F)F)n(C)c2=O)c(F)cc1Cl (stereo not shown); 100%

Incoming: Note down pest or weed control at 20 g/ha recorded for COCC(C)OC(=O)COc1ccccc1Oc1cc(-n2c(=O)cc(C(F)(F)F)n(C)c2=O)c(F)cc1Cl (stereo not shown)
Outgoing: 100%

Incoming: Note down pest or weed control at 20 g/ha recorded for Cn1c(C(F)(F)F)cc(=O)n(-c2cc(Oc3ccccc3OCC(=O)OCC3CCCO3)c(Cl)cc2F)c1=O (stereo not shown)
Outgoing: 100%

Incoming: Note down pest or weed control at 20 g/ha recorded for "COCCOC(=O)COc1ccccc1Oc1cc(-n2c(=O)cc(C(F)(F)F)n(C)c2=O)c(F)cc1[N+](=O)[O-]"
Outgoing: 100%

Incoming: Note down pest or weed control at 20 g/ha recorded for "Cn1c(C(F)(F)F)cc(=O)n(-c2cc(Oc3ccccc3OCC(=O)OCC#N)c(Br)cc2F)c1=O"
Outgoing: 100%

These data points were gathered from patent US20240025862A1.
